tested on: MCF7; assay: Growth inhibition of human MCF7 cells after 48 hrs by sulforhodamine B assay; assay type: functional; conditions: MCF7, 48 h
For each record, check the reported GI50: if it is below 6 µM write Y, else write N.

Please let me know if `O=C(NCCCl)Nc1cccc(OCc2ccccc2)c1` shows GI50 below 6 µM.
N

Regarding `O=C(CCl)NC(=O)Nc1cccc(OC2CCCC2)c1` , kindly confirm whether its GI50 is beneath 6 µM.
N

Dear reviewer, please state whether `c1ccc(COc2cccc(NC3=NCCO3)c2)cc1` has GI50 strictly beneath 6 µM.
Y

Strictly below 6 µM in GI50? `c1cc(OC2CCCCCC2)ccc1NC1=NCCO1`
N

Decide: GI50 of `O=C(CCl)NC(=O)Nc1ccc(Oc2ccccc2)cc1` strictly below 6 µM?
Y

Is the reported GI50 for `c1cc(NC2=NCCO2)cc(OC2CCCCCC2)c1` strictly below 6 µM?
N

Threshold test, GI50 < 6 µM: `c1cc(OC2CCCC2)ccc1NC1=NCCO1`
N

hey, is GI50 for `O=C(CCl)NC(=O)Nc1cccc(OC2CCCCCC2)c1` lower than 6 µM or not?
N

Lab note: GI50 threshold 6 µM. Does this compound come in strictly under it? `O=C(CCl)NC(=O)Nc1ccc(OC2CCCC2)cc1`
Y

Is the reported GI50 for `O=C(NCCCl)Nc1ccc(-c2ccccc2)cc1` strictly below 6 µM?
N

For `c1cc(C2CCCCC2)ccc1NC1=NCCO1` , is the recorded GI50 below the cut-off of 6 µM?
N

Given `O=C(NCCCl)Nc1ccc(OCc2ccccc2)cc1` , is recorded GI50 strictly lower than 6 µM?
N

Here's an entry: `c1ccc(COc2ccc(NC3=NCCO3)cc2)cc1` . Is its GI50 below 6 µM?
N

For this compound, is GI50 lower than 6 µM? `c1ccc(Oc2cccc(NC3=NCCO3)c2)cc1`
N

# TODO verify GI50 < 6 µM strictly for this compound: `c1ccc2cc(NC3=NCCO3)ccc2c1`
Y

I'd appreciate it if you could check whether `c1cc(NC2=NCCO2)cc(OC2CCCC2)c1` has GI50 smaller than 6 µM.
N

Identify whether the compound `O=C(CCl)NC(=O)Nc1ccc(C2CCCCC2)cc1` records GI50 below 6 µM.
Y

For this compound, is GI50 lower than 6 µM? `O=C(CCl)NC(=O)Nc1ccc2ccccc2c1`
N

Check if GI50 falls below 6 µM for `O=C(CCl)NC(=O)Nc1cccc(OCc2ccccc2)c1` .
N

Strictly below 6 µM: is that where GI50 of O=C(NCCCl)NC1C2CC3CC(C2)CC1C3 (configuration not stated) sits?
N

Please state whether GI50 is below 6 µM for O=C(CCl)NC(=O)NC1C2CC3CC(C2)CC1C3 (configuration not stated)
N

# check: GI50 < 6 µM for C1COC(NC2C3CC4CC(C3)CC2C4)=N1 (configuration not stated)
N

Dear colleague, could you confirm whether GI50 of `O=C(CCl)NC(=O)Nc1ccc(OC2CCCCCC2)cc1` falls below 6 µM? Thanks.
Y

Strictly below 6 µM in GI50? `c1cc(OC2CCCCC2)ccc1NC1=NCCO1`
N

API: query returns whether the compound falls strictly under 6 µM in GI50. Query: `O=C(CCl)NC(=O)Nc1ccc(OC2CCCCC2)cc1`
Y

For `c1ccc(-c2ccc(NC3=NCCO3)cc2)cc1` , is the recorded GI50 below the cut-off of 6 µM?
N

Item `c1ccc(Oc2ccc(NC3=NCCO3)cc2)cc1` : GI50 beneath 6 µM, strictly?
Y

In the record for `O=C(CCl)NC(=O)Nc1ccc(-c2ccccc2)cc1` , is GI50 less than 6 µM?
Y

Does the reported GI50 of the following compound sit strictly below 6 µM? `c1cc(NC2=NCCO2)cc(OC2CCCCC2)c1`
N

Check if GI50 falls below 6 µM for `O=C(CCl)NC(=O)Nc1cccc(Oc2ccccc2)c1` .
N

Lab note: confirm whether the reported GI50 for this compound is below 6 µM, equality not counting. compound: `O=C(CCl)NC(=O)Nc1ccc(OCc2ccccc2)cc1`
Y

A record lists `O=C(CCl)NC(=O)Nc1cccc(OC2CCCCC2)c1` . Is its GI50 below 6 µM?
N
